- Tested on: Klebsiella pneumoniae
- EXPERIMENT_SUMMARY: Antibacterial activity against Klebsiella pneumoniae clinical isolate incubated for 16 to 24 hrs by CLSI based broth microdilution method
- Type: functional
- MEASUREMENT_CONDITIONS: time 16-24 hrs
QUANTITY_MEASURED: MIC

Report MIC for `CN[C@H](CC(C)C)C(=O)N[C@H]1C(=O)N[C@@H](CC(N)=O)C(=O)N[C@H]2C(=O)N[C@H]3C(=O)N[C@H](C(=O)N[C@H](C(=O)NCc4ccc(-c5ccc(CCN)cc5)cc4)c4cc(O)cc(O)c4-c4cc3ccc4O)[C@H](O)c3ccc(c(Cl)c3)Oc3cc2cc(c3O[C@@H]2O[C@H](CO)[C@@H](O)[C@H](O)[C@H]2O[C@H]2C[C@](C)(N)[C@H](O)[C@H](C)O2)Oc2ccc(cc2Cl)[C@H]1O` please.
> 128 mg/L

* * *

- Tested on: Klebsiella pneumoniae
- EXPERIMENT_SUMMARY: Antibacterial activity against Klebsiella pneumoniae clinical isolate incubated for 16 to 24 hrs by CLSI based broth microdilution method
- Type: functional
- MEASUREMENT_CONDITIONS: time 16-24 hrs
QUANTITY_MEASURED: MIC

SMILES_STRING: CN[C@H](CC(C)C)C(=O)N[C@H]1C(=O)N[C@@H](CC(N)=O)C(=O)N[C@H]2C(=O)N[C@H]3C(=O)N[C@H](C(=O)N[C@H](C(=O)NCc4ccc(-c5ccc(CCNC(=N)N)cc5)cc4)c4cc(O)cc(O)c4-c4cc3ccc4O)[C@H](O)c3ccc(c(Cl)c3)Oc3cc2cc(c3O[C@@H]2O[C@H](CO)[C@@H](O)[C@H](O)[C@H]2O[C@H]2C[C@](C)(N)[C@H](O)[C@H](C)O2)Oc2ccc(cc2Cl)[C@H]1O
MIC: > 128 µg/mL

Value sought for every listed compound: MIC.
1. CN[C@H](CC(C)C)C(=O)N[C@H]1C(=O)N[C@@H](CC(N)=O)C(=O)N[C@H]2C(=O)N[C@H]3C(=O)N[C@H](C(=O)N[C@H](C(=O)O)c4cc(O)cc(O)c4-c4cc3ccc4O)[C@H](O)c3ccc(c(Cl)c3)Oc3cc2cc(c3O[C@@H]2O[C@H](CO)[C@@H](O)[C@H](O)[C@H]2O[C@H]2C[C@](C)(NCc3ccc(-c4ccc(CNC(=N)N)cc4)cc3)[C@H](O)[C@H](C)O2)Oc2ccc(cc2Cl)[C@H]1O
2. CC(=O)NCCCCNC(=O)[C@H]1NC(=O)[C@H]2NC(=O)[C@H](NC(=O)[C@@H]3NC(=O)[C@H](CC(N)=O)NC(=O)[C@H](NC(=O)[C@H](N)CC(C)C)[C@H](O)c4ccc(c(Cl)c4)Oc4cc3cc(c4O[C@@H]3O[C@H](CO)[C@@H](O)[C@H](O)[C@H]3O[C@H]3C[C@](C)(N)[C@H](O)[C@H](C)O3)Oc3ccc(cc3Cl)[C@H]2O)c2ccc(O)c(c2)-c2c(O)cc(O)cc21

1: > 128 µg/mL; 2: > 128 µg/mL

Batch: MIC for all items listed.
1. CN[C@H](CC(C)C)C(=O)N[C@H]1C(=O)N[C@@H](CC(N)=O)C(=O)N[C@H]2C(=O)N[C@H]3C(=O)N[C@H](C(=O)N[C@H](C(=O)N[C@H](CCCNC(=N)N)C(N)=O)c4cc(O)cc(O)c4-c4cc3ccc4O)[C@H](O)c3ccc(c(Cl)c3)Oc3cc2cc(c3O[C@@H]2O[C@H](CO)[C@@H](O)[C@H](O)[C@H]2O[C@H]2C[C@](C)(N)[C@H](O)[C@H](C)O2)Oc2ccc(cc2Cl)[C@H]1O
2. CN[C@H](CC(C)C)C(=O)N[C@H]1C(=O)N[C@@H](CC(N)=O)C(=O)N[C@H]2C(=O)N[C@H]3C(=O)N[C@H](C(=O)N[C@H](C(=O)NCc4ccc(-c5ccc(CNC(=N)N)cc5)cc4)c4cc(O)cc(O)c4-c4cc3ccc4O)[C@H](O)c3ccc(c(Cl)c3)Oc3cc2cc(c3O[C@@H]2O[C@H](CO)[C@@H](O)[C@H](O)[C@H]2O[C@H]2C[C@](C)(N)[C@H](O)[C@H](C)O2)Oc2ccc(cc2Cl)[C@H]1O

1. 128 µg/mL
2. > 128 µg/mL
